This collection of values is drawn from patent US20210388087A1.

Listing of recorded fold change of affinity by entry.
biological target: T1, Human CD137 ECD (human); experiment: single mutant vs template dBBDu183H
T1 construct: also called 4-1BB
T1 sequence (chain, as listed by the source limits assumed): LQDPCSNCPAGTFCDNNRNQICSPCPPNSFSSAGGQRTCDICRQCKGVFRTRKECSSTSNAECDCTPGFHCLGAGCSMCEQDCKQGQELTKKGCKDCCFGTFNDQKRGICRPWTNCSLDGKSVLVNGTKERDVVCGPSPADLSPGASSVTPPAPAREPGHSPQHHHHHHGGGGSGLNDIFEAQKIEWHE
Form entry: value (fold) — number only.

[[record]]
binder = "H183/L072 VH Y55G (antibody, name in Kabat numbering, V domains shown) VH: QVQLVESGGGLVQPGRSLRLSCAASGFTFSNAWMHWVRQAPGKGLEWVAQIKDKGNAGAAYYAPSVKGRFTISRDDSKNSIYLQMNSLKTEDTAVYYCHYVHYASASTVLPAFGVDAWGQGTTVTVSS VL: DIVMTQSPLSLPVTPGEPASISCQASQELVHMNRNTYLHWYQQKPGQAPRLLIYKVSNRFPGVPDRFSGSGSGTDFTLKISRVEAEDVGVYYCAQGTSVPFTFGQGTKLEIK"
reading = 0.3


Let us examine a further case.
Data request: Sample H183/L072 VH I51N (antibody, name in Kabat numbering, V domains shown) VH: QVQLVESGGGLVQPGRSLRLSCAASGFTFSNAWMHWVRQAPGKGLEWVAQNKDKGNAYAAYYAPSVKGRFTISRDDSKNSIYLQMNSLKTEDTAVYYCHYVHYASASTVLPAFGVDAWGQGTTVTVSS VL: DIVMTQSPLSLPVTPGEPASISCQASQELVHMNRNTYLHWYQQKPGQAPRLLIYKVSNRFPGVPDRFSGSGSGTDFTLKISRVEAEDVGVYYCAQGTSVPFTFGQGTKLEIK — what was its fold change of affinity?
Data returned: 0.2
